Biological target: FLT3 (Homo sapiens, UniProt P36888)
Sequence (P36888 27-993): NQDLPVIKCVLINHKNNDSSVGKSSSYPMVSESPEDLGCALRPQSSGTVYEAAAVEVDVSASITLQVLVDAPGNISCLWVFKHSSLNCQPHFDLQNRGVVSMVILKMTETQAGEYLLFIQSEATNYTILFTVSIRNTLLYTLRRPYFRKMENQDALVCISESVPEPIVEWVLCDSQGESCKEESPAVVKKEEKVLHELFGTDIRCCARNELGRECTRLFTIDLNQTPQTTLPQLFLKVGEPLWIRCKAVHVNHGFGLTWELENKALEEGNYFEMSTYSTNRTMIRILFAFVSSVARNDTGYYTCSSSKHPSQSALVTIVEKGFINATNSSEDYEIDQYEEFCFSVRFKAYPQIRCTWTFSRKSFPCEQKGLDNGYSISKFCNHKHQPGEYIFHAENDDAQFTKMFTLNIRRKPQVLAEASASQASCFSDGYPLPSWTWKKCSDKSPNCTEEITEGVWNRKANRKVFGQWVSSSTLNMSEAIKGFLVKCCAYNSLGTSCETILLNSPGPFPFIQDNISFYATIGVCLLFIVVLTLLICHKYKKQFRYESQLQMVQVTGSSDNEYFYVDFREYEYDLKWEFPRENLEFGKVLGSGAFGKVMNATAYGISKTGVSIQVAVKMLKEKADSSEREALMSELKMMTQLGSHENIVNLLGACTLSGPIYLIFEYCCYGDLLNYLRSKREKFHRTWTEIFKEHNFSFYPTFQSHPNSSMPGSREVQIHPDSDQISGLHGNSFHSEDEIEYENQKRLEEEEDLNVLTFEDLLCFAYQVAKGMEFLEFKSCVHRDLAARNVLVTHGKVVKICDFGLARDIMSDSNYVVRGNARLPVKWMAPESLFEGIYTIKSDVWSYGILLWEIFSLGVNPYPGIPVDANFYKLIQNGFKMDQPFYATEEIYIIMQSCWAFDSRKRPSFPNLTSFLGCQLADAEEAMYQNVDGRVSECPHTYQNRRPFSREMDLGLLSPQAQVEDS
Reported Property: pIC50
Field pIC50 (float): negative decimal logarithm of the concentration in molar.

[Q] Name the reported pIC50 value associated with the molecule "CN1CCC[C@@H]1c1cc2cnc(NC(=O)c3ccc(-c4cn[nH]c4)cn3)cc2[nH]1"
[A] 8.15
